test: chemical genetic growth profiling, strain panel (AID 1159580);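 also: tested at 20 µM; growth read once vehicle control cultures reached saturation at 30 °C; 1 = growth at the plate median or of vehicle wells; lower values mean less growth of the strain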; conditions: S. cerevisiae deletion strains, growth OD, locus YLR384C, strain iki3, stronger effect = lower value
Screen size: about 5,500 compounds; about 2,000 (36%) were called active. Another 18% or so got no clear call; they are omitted. The list shows a part of the results.
Assignment: determine reported normalized growth for the given compounds.
The answer should be written as a number, with no unit following it.

Task item: Please give the measured normalized growth for this compound: COc1ccc(-c2coc3cc(O)ccc3c2=O)c(OC)c1
Reply: 0.998

Task item: Please give the measured normalized growth for this compound: C=CCCCCCCCCCCCc1ccco1
Reply: 0.967

Task item: Please give the measured normalized growth for this compound: CN1C2CCC1CC(OC(c1ccccc1)c1ccccc1)C2 (stereo not drawn)
Reply: 0.999

Task item: Please give the measured normalized growth for this compound: O=c1c(-c2ccc(O)cc2)coc2cc(O)ccc12
Reply: 1

Task item: Please give the measured normalized growth for this compound: CCCCCCCCCCCCCc1ccco1
Reply: 0.983

Task item: Please give the measured normalized growth for this compound: C#CCN(C)Cc1ccccc1
Reply: 0.996

Task item: Please give the measured normalized growth for this compound: COc1ccc(-c2coc3cc(O)ccc3c2=O)cc1
Reply: 0.989

Task item: Please give the measured normalized growth for this compound: C#CCCCCCCCCCCCc1ccco1
Reply: 0.987

Task item: Please give the measured normalized growth for this compound: O=C1C(Cl)=C(Cl)C(=O)C(Cl)=C1Cl
Reply: 0.966

Task item: Please give the measured normalized growth for this compound: CN1C2C[C@H](OC(=O)[C@H](CO)c3ccccc3)C[C@H]1[C@@H](O)C2
Reply: 1.02

Task item: Please give the measured normalized growth for this compound: NS(=O)(=O)c1cc2c(cc1Cl)NC=NS2(=O)=O
Reply: 1.01

Task item: Please give the measured normalized growth for this compound: COc1ccc2c(c1)OC1(O)COc3cc(OC)c(OC)cc3C1=C2 (stereo not drawn)
Reply: 0.985

Task item: Please give the measured normalized growth for this compound: COc1ccc(-c2coc3cc(O)ccc3c2=O)c(OC)c1O
Reply: 0.975

---

assay: chemical genetic growth profiling, strain panel (AID 1159580);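 also: tested at 20 µM; growth read once vehicle control cultures reached saturation at 30 °C; 1 = growth at the plate median or of vehicle wells; lower values mean less growth of the strain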; details: S. cerevisiae deletion strains, growth OD, locus YDR477W, strain SNF1, stronger effect = lower value
Among all 5,500 compounds or so, about 2,000 (36%) were called active. Another 18% or so got no clear call; they are omitted. The list shows a part of the results.
Assignment: determine reported normalized growth for the given compounds.
The answer should be written as a number, with no unit following it.

Task item: Please give the measured normalized growth for this compound: O=C(Oc1cccc2[nH]ccc12)c1ccc(C(F)(F)F)cc1
Reply: 0.814

Task item: Please give the measured normalized growth for this compound: COc1cccc(C2CCN(C(=O)c3cccc4ccccc34)CC2)c1
Reply: 0.923

Task item: Please give the measured normalized growth for this compound: Fc1cc(I)ccc1Nc1ccnc2cc(Cl)ccc12
Reply: 0.949

Task item: Please give the measured normalized growth for this compound: CC(=O)c1ccc(Cl)c(NS(=O)(=O)c2cc(Cl)c(Cl)cc2Cl)c1
Reply: 0.799

Task item: Please give the measured normalized growth for this compound: C/C(Cc1nnn(-c2cc(C)on2)n1)=N/OC(=O)Nc1ccc(Cl)cc1
Reply: 0.899

Task item: Please give the measured normalized growth for this compound: O=C(ON=C1CCCCC1)c1ccc([N+](=O)[O-])cc1
Reply: 0.833

Task item: Please give the measured normalized growth for this compound: N/C(Cn1ccc(C(F)(F)F)n1)=N/OS(=O)(=O)c1cccc(Cl)c1Cl
Reply: 0.993

Task item: Please give the measured normalized growth for this compound: COc1ccc(C(CC(=O)c2ccccc2)Sc2ccccc2N)cc1OC (stereo unspecified)
Reply: 0.958

Task item: Please give the measured normalized growth for this compound: O=C(NCc1ccc(Cl)c(Cl)c1)c1cccnc1OCC(F)(F)F
Reply: 0.974

Task item: Please give the measured normalized growth for this compound: Cc1cccc(NC(=S)N/N=C\c2ccc(F)cc2)c1
Reply: 0.835

Task item: Please give the measured normalized growth for this compound: CCOC(=O)c1ccc2nc(N=CNO)sc2c1
Reply: 0.913
